Cited source: ChEMBL document CHEMBL1201862

Test system: SK-MEL-28
Assay: NCI tumour cell line growth inhibition, 48 h
Activity calls are given as the source filed them. Rule as the data show it: active = GI50 up to about 1.1 µM and inactive = higher.
property: GI50

Example entries begin here.
compound=CC(=O)O[C@H]1C(=O)[C@@]2(C)[C@H]([C@H](OC(=O)c3ccccc3)[C@]3(O)C[C@H](OC(=O)[C@H](O)[C@@H](NC(=O)c4ccccc4)c4ccccc4C)C(C)=C1C3(C)C)[C@]1(OC(C)=O)CO[C@@H]1C[C@@H]2O property=GI50 result="1.55 µM (inactive)"
compound=O=C1/C(=C\c2ccc(Cl)cc2Cl)Sc2scc(-c3cccc([N+](=O)[O-])c3)[n+]21 property=GI50 result="14.6 µM (inactive)"
compound=COc1cccc2cc(C(=O)O)c(=O)oc12 property=GI50 result="> 100 µM (inactive)"
compound="CCOC(=O)C(=CNC(Cc1c[nH]c2ccccc12)C(=O)OC)C(=O)OCC (centres undefined)" property=GI50 result="> 100 µM (inactive)"
compound=CN(C)CCNC(=O)C(C)(C)Oc1ccc(C(=O)c2ccc(Cl)cc2)cc1Cl property=GI50 result="1.94 µM (inactive)"

-- ask Consider the compound CN(C(=S)Cc1ccc(Cl)c(Cl)c1)C1CCCC[C@@H]1N1CCCC1 (some centres undefined) tested on SK-MEL-28; state its GI50.
-- reply 16.7 µM (inactive)

-- ask Write GI50 of O=C1C(=O)N(c2cc(Cl)ccc2Cl)C(=O)C(=O)C1c1nc2ccccc2s1 ; system used: SK-MEL-28
-- reply > 100 µM (inactive)

-- ask Please indicate recorded GI50 of CSc1nc(SC)c2c(CN=[N+]=[N-])c(Br)n(Cc3ccccc3)c2n1 measured with SK-MEL-28.
-- reply > 100 µM (inactive)

-- ask Quote SK-MEL-28 GI50 for entry O=C(CC1C(=O)Nc2ccccc2S1(=O)=O)Nc1ccc(Cl)cc1 (centres undefined) .
-- reply 20 µM (inactive)
